- experimental.protocol: in vitro
- conditions: human, liver microsomes
measured.parameter: remaining at 1 h (%)
The answer is to be given in %; state only the numeric part.

Query: For COc1ccc(CCN(C)CCCC(C#N)(c2ccc(OC)c(OC)c2)C(C)C)cc1OC (stereo unspecified) , what is its reported remaining at 1 h?
Response: 20.3

----------
- target.system: Mitogen-activated protein kinase 9 (Homo sapiens)
- Sequence (P45984 whole entry): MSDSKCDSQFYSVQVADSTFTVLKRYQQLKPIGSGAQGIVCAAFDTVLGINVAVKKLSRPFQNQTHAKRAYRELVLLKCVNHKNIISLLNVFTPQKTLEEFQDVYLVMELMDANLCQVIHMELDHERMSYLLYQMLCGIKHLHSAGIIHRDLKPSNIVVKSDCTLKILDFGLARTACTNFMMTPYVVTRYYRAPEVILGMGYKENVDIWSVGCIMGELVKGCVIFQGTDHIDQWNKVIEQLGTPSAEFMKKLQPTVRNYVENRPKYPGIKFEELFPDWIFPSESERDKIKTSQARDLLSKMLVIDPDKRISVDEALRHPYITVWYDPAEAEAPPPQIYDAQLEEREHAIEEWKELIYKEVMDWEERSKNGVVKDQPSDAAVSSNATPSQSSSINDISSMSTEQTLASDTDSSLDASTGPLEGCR
measured.parameter: IC50 (nM)
The answer is to be given in nM; state only the numeric part.

Query: For NC(=O)c1nn(-c2ccnc(N[C@H]3CCCN(C(=O)C4CC4)C3)n2)cc1/C=C/c1ccccc1 , what is its reported IC50?
Response: 450

----------
- experimental.protocol: in vitro
- conditions: human, plasma
- Description: Stability in human plasma assessed as parent compound remaining at 60 mins
measured.parameter: remaining at 1 h (%)
The answer is to be given in %; state only the numeric part.

Query: For CCOC(=O)[C@H](CCc1ccccc1)N[C@@H](C)C(=O)N1CCC[C@H]1C(=O)O , what is its reported remaining at 1 h?
Response: 90

----------
- experimental.protocol: in vitro
- conditions: human, plasma
- Description: Stability in human plasma assessed as parent compound remaining at 30 mins
measured.parameter: remaining at 0.5 h (%)
The answer is to be given in %; state only the numeric part.

Query: For CCOC(=O)[C@H](CCc1ccccc1)N[C@@H](C)C(=O)N1CCC[C@H]1C(=O)O , what is its reported remaining at 0.5 h?
Response: 95

----------
- target.system: UniProt:P49841
- Sequence (P49841 whole entry): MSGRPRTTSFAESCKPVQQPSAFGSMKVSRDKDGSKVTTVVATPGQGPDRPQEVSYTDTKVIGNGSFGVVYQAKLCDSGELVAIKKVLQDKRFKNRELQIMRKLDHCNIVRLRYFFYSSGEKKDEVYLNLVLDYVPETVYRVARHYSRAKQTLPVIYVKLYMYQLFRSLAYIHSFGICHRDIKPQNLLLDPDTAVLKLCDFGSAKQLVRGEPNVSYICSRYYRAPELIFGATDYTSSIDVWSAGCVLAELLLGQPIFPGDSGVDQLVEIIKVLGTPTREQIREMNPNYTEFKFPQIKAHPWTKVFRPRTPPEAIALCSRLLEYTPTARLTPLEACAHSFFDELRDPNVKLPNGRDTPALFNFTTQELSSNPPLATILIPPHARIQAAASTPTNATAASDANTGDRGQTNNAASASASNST
measured.parameter: IC50 (nM)
The answer is to be given in nM; state only the numeric part.

Query: For NC(=O)c1nn(-c2ccnc(N[C@H]3CCCN(C(=O)C4CC4)C3)n2)cc1/C=C/c1ccccc1 , what is its reported IC50?
Response: 14

----------
- experimental.protocol: in vitro
- conditions: PAMPA
- Description: Permeability coefficient of compound by PAMPA
measured.parameter: Papp (×10⁻⁶ cm/s)
The answer is to be given in ×10⁻⁶ cm/s; state only the numeric part.

Query: For CC(=O)[C@H]1CC[C@H]2[C@@H]3CCC4=CC(=O)CC[C@]4(C)[C@H]3CC[C@]12C , what is its reported Papp?
Response: 40.7
